target-or-system: cGAS (Homo sapiens, UniProt Q8N884)
Sequence (Q8N884 whole entry): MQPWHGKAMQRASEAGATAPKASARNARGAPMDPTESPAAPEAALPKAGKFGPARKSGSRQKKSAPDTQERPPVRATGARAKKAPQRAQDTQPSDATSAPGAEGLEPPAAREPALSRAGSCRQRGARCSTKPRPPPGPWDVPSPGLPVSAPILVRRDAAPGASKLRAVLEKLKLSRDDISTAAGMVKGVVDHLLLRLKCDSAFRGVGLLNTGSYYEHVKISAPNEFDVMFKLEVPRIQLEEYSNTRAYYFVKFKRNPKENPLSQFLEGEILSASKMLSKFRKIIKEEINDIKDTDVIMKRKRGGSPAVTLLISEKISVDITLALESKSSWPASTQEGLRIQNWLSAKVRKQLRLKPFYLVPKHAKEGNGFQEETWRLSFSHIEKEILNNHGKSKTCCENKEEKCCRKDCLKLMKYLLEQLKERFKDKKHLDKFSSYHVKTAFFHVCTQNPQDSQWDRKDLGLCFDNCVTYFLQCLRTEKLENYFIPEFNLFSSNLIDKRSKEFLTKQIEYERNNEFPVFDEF
assay-info: ISD70-driven IP-10 (and IFN-β) production in THP-1 cells, ELISA
Type: cell-based
Design: endogenous in cells; host or cells: THP-1 (undifferentiated)
assay-context: ASO 100 nM; relative to ISD70 only, given as fraction
reported-endpoint: cGAS 100 nM (averaged IP-10 level relative to ISD70 condition)
One number for each entry.

Here are 4 sequences. What values of cGAS 100 nM (averaged IP-10 level relative to ISD70 condition) were reported for them?
1. AACACTTCGTGGGGTC (antisense; LNA-modified, pattern not given here) [HPRT LNA-666 V1]
2. CTGCAGCTTCCTTGTC (antisense; LNA-modified, pattern not given here) [CTNN2B-2136 LNA V1]
3. GGTCATTACAATAGCT (antisense; LNA-modified, pattern not given here) [HPRT LNA-475 KL]
4. GCCATGCTGGCTCGGA (antisense; LNA-modified, pattern not given here) [CAMSAP1-2584 LNA V1]

Result:
1. 0.598
2. 0.613
3. 0.751
4. 0.599

Could I get cGAS 100 nM (averaged IP-10 level relative to ISD70 condition) for every one of these entries?
1. TCCATACCCAAGGCAT (antisense; LNA-modified, pattern not given here) [CTNN2B-2446 LNA V1]
2. GAAAGGTTATGCAAGG (antisense; LNA-modified, pattern not given here) [CTNN2B-916 LNA KL]
3. AAAGGACTGAGGAAAG (antisense; LNA-modified, pattern not given here) [CAMSAP1-6273 LNA KL]

Result:
1: 0.589; 2: 0.473; 3: 0.675

Provide each entry's cGAS 100 nM (averaged IP-10 level relative to ISD70 condition) from the list below.
1. TGGTGGCCACCCATCT (antisense; LNA-modified, pattern not given here) [CTNN2B-2479 LNA V1]
2. ACGTTCAGTCCTGTCC (antisense; LNA-modified, pattern not given here) [HPRT LNA-294 V1]

Result:
[0.830, 0.880]

Here are 3 sequences. What values of cGAS 100 nM (averaged IP-10 level relative to ISD70 condition) were reported for them?
1. AGGTCTTGGCTTCGTG (antisense; LNA-modified, pattern not given here) [MB21D1-524 LNA V1]
2. CGTATTATAGCCGATT (antisense; LNA-modified, pattern not given here) [NC1 LNA PS 3-10-3]
3. CCAAGATCAGCAGTCT (antisense; LNA-modified, pattern not given here) [CTNN2B-2341 LNA KL]

Result:
1: 0.947; 2: 0.443; 3: 0.356

// batch mode: one cGAS 100 nM (averaged IP-10 level relative to ISD70 condition) value per listed entry
1. TTCAGGCGCTGCCTTG (antisense; LNA-modified, pattern not given here) [CAMSAP1-2709 LNA V1]
2. AACCCCTTTCACCATC (antisense; LNA-modified, pattern not given here) [MB21D1-689 LNA KL]

Result:
1. 0.709
2. 0.621

---

Record form. Attribute: cGAS-100 nM: averaged IP-10 levels relative to ISD70. Fill in for each entry.
target-or-system: cGAS (Homo sapiens)
assay-info: ISD70-driven IP-10 (and IFN-β) production in THP-1 cells, ELISA
Type: cell-based
Parameters: endogenous in cells; host or cells: THP-1 (undifferentiated)
assay-context: THP-1; 100 nM ASO overnight, then ISD70 2.5 μg/ml 7-8 h; percentage of ISD70 only
Procedure: The ability of an oligonucleotide to inhibit cGAS activity can, for example, be analysed by incubating cells which express cGAS with an oligonucleotide, then stimulating said cells with a cGAS agonist (e.g., 70-bp interferon stimulating DNA or ISD70; 45-bp interferon stimulating DNA or ISD45), and analysing the overall cGAS response in the cell population, or analysing the proportion of cells having cGAS-positive activity after a defined period of time. […]
In the oligonucleotide strings, read from the 5' end, every base follows the letter of its sugar. An asterisk marks phosphorothioate; unmarked linkages are phosphodiester. Other units and linkages are bracketed, terminal groups are in braces. A string of capitals states the bases alone. d = 2'-deoxy (DNA); m = 2'-O-methyl
Give bare numbers, in %.

Consider the worked cases shown below.
Ask: Assign cGAS-100 nM: averaged IP-10 levels relative to ISD70 to the following record: mG*mA*mU*mG*mG*T*T*C*C*A*G*T*C*C*C*mU*mC*mU*mU*mC (GAUGGTTCCAGTCCCUCUUC; antisense; sugars from the 5' end m5 d10 m5, all phosphorothioate, methylation of C not given here) [[LINC-PINT]1497.1]
Result: 26.05

Ask: Supply cGAS-100 nM: averaged IP-10 levels relative to ISD70 value. Item: mC*mC*mC*mU*mU*C*T*C*T*C*T*G*G*T*C*mC*mC*mA*mU*mC (mC*mC*mC*mU*mU*dC*dT*dC*dT*dC*dT*dG*dG*dT*dC*mC*mC*mA*mU*mC; antisense) [[LINC-PINT]114]
Result: 84.38

Ask: Quick one: give measured cGAS-100 nM: averaged IP-10 levels relative to ISD70 for mG*mG*mA*mU*mU*A*A*A*A*C*A*G*A*T*T*mA*mA*mU*mA*mC (GGAUUAAAACAGATTAAUAC; sugars from the 5' end m5 d10 m5, all phosphorothioate, methylation of C not given here) [[CDKN2B-AS1]1774]
Result: 50.11

Fill in cGAS-100 nM: averaged IP-10 levels relative to ISD70 for each of the 5 substances listed.
1. mC*mC*mU*mU*mC*T*C*T*C*T*G*GT*C*C*mC*mA*mU*mC*mC (CCUUCTCTCTGGTCCCAUCC; antisense; chemistry not fully specified) [[LINC-PINT]113]
2. mU*mU*mU*mG*mA*A*A*T*T*C*A*G*A*A*G*mA*mU*mU*mU*mG (mU*mU*mU*mG*mA*dA*dA*dT*dT*dC*dA*dG*dA*dA*dG*mA*mU*mU*mU*mG) [[LINC PINT|2690]
3. mA*mG*mU*mC*mU*C*C*A*T*G*T*C*C*C*A*mG*mG*mC*mC*mU (mA*mG*mU*mC*mU*dC*dC*dA*dT*dG*dT*dC*dC*dC*dA*mG*mG*mC*mC*mU; antisense) [[CDKN2B-AS1]2232]
4. mG*mG*mU*mC*mC*C*A*T*C*C*C*T*T*C*T*mG*mC*mU*mG*mC (GGUCCCATCCCTTCTGCUGC; sugars from the 5' end m5 d10 m5, all phosphorothioate, methylation of C not given here) [[LINC-PINT]103]
5. mU*mG*mU*mG*mA*A*A*A*G*A*T*T*A*T*C*mU*mU*mC*mU*mU (UGUGAAAAGATTATCUUCUU; sugars from the 5' end m5 d10 m5, all phosphorothioate, methylation of C not given here) [[CDKN2B-AS1]2137]

Result:
[103.79, 84.15, 88.13, 45.23, 40.72]

# map each substance to its cGAS-100 nM: averaged IP-10 levels relative to ISD70
1. mC*mC*mA*mU*mC*C*C*T*T*C*T*G*C*T*G*mC*mC*mA*mA*mG (mC*mC*mA*mU*mC*dC*dC*dT*dT*dC*dT*dG*dC*dT*dG*mC*mC*mA*mA*mG; antisense) [ILING-PINT199]
2. mA*mG*mA*mA*mA*G*A*A*G*C*A*A*A*G*A*mU*mU*mC*mA*mA (AGAAAGAAGCAAAGAUUCAA; sugars from the 5' end m5 d10 m5, all phosphorothioate, methylation of C not given here) [[CDKN2B-AS1]1519]
3. mG*mU*mC*mC*mC*A*T*C*C*C*T*T*C*T*G*mC*mU*mG*mC*mC (GUCCCATCCCTTCTGCUGCC; antisense; sugars from the 5' end m5 d10 m5, all phosphorothioate, methylation of C not given here) [[LINC-PINT]102]
4. mA*mA*mA*mA*mG*A*T*T*A*T*C*T*T*C*T*mU*mU*mU*mA*mA (AAAAGATTATCTTCTUUUAA; sugars from the 5' end m5 d10 m5, all phosphorothioate, methylation of C not given here) [[CDKN2B-AS1]2133]
5. mG*mU*mG*mU*mC*C*T*T*C*A*T*G*C*T*T*mU*mG*mG*mA*mU (GUGUCCTTCATGCTTUGGAU; antisense; sugars from the 5' end m5 d10 m5, all phosphorothioate, methylation of C not given here) [[CDKN2B-AS1]1415]
6. mC*mA*mG*mU*mG*T*T*T*T*T*A*A*T*T*T*mU*mG*mU*mA*mG (mC*mA*mG*mU*mG*dT*dT*dT*dT*dT*dA*dA*dT*dT*dT*mU*mG*mU*mA*mG; antisense) [[CDKN2B-AS1]613]

Result:
85.43
49.09
113.87
57.68
58.18
60.94

Provide cGAS-100 nM: averaged IP-10 levels relative to ISD70 for all items below, preserving their order.
1. mU*mG*mU*mU*mU*C*C*C*C*G*G*A*G*A*G*mC*mA*mA*mU*mG (UGUUUCCCCGGAGAGCAAUG; antisense; sugars from the 5' end m5 d10 m5, all phosphorothioate, methylation of C not given here) [[LINC-PINT]501 KL]
2. mA*mG*mA*mU*mU*A*T*C*T*T*C*T*T*T*T*mA*mA*mU*mU*mU (AGAUUATCTTCTTTTAAUUU; sugars from the 5' end m5 d10 m5, all phosphorothioate, methylation of C not given here) [[CDKN2B-AS1]2130]

Result:
[57.81, 55.80]
